compounds and their reported IC50
biological target: human P-selectin (Homo sapiens); construct: IgG-Fc (fusion partner); purchased R&D Systems Europe Ltd., Abingdon, United Kingdom; experiment: Competition assay with TM11-PO (competition ELISA); type: binding; details: Table 1; derivatised peptides HPij; inhibition of TM11-PO binding to human P-selectin; read-out: IC50
Sequence (P16109 with tags, fused parts or gaps limits assumed): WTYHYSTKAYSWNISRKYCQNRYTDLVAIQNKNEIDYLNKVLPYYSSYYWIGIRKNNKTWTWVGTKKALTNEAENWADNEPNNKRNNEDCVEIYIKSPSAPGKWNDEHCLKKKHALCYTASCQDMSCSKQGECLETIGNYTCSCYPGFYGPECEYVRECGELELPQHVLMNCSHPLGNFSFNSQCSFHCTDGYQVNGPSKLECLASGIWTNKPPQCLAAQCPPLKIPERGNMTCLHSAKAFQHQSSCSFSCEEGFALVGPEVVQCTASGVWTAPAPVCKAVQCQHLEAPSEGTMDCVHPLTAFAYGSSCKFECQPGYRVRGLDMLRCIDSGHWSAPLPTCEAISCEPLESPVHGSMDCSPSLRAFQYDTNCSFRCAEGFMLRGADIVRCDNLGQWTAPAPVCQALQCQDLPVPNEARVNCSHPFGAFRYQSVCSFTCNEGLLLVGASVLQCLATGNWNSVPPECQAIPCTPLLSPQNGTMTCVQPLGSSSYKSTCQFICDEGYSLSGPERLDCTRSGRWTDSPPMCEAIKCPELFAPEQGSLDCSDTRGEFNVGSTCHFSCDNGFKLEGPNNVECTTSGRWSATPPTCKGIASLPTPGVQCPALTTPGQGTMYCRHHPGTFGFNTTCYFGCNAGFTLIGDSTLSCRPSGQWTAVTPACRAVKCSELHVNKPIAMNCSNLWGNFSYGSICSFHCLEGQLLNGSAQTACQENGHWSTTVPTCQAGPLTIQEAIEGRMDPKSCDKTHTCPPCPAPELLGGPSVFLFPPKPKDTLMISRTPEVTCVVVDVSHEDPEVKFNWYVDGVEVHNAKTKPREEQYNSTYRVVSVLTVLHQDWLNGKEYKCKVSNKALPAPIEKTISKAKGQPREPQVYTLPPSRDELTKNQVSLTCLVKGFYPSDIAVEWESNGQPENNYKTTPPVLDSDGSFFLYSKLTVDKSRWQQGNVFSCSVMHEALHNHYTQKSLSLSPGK
Numbered stars: 1 amine (or outer) side, 2 acyl side, 3 side chain; on linkers, the order of the positions; unused ones are H or OH. Square brackets hold non-standard residues; d marks the D form. Peptide text beside a SMILES is read from it. * marks the point of attachment. Trimesoyl = O=C(c1cc(C(=O)[*:2])cc(C(=O)[*:3])c1)[*:1]; Thiophene2carbonyl = O=C(c1cccs1)*; Galloyl = O=C(c1cc(O)c(O)c(O)c1)*; Butyryl = CCCC(=O)*; GABA = NCCCC(=O)O
Provide the reading as a plain figure in nM.

compound: CC(C)[C@H](NC(=O)[C@H](CC(=O)O)NC(=O)[C@@H](NC(=O)[C@H](Cc1c[nH]c2ccccc12)NC(=O)[C@H](CCC(=O)O)NC(=O)c1cc(O)c(O)c(O)c1)C(C)C)C(=O)N[C@@H](CCCCNC(=O)c1cc(C(=O)O)cc(C(=O)O)c1)C(=O)NCCCC(=O)O [HP61] (Galloyl-EWVDVK(Trimesoyl)[GABA]-OH)
unitOfMeasure: nM
reportedMeasurement: 190

compound: CCCC(=O)NCCCC[C@H](NC(=O)[C@@H](NC(=O)[C@H](CC(=O)O)NC(=O)[C@@H](NC(=O)[C@H](Cc1c[nH]c2ccccc12)NC(=O)[C@H](CCC(=O)O)NC(=O)c1cc(O)c(O)c(O)c1)C(C)C)C(C)C)C(=O)NCCCC(=O)O [HP65] (Galloyl-EWVDVK(Butyryl)[GABA]-OH)
unitOfMeasure: nM
reportedMeasurement: 2350

Okay, now this compound:
Entry CC(C)[C@H](NC(=O)[C@H](CC(=O)O)NC(=O)[C@@H](NC(=O)[C@H](Cc1c[nH]c2ccccc12)NC(=O)[C@H](CCC(=O)O)NC(=O)c1cc(O)c(O)c(O)c1)C(C)C)C(=O)N[C@@H](CCCCNC(=O)c1cccs1)C(=O)NCCCC(=O)O [HP63] (Galloyl-EWVDVK(Thiophene2carbonyl)[GABA]-OH) has what IC50? 3400

The measurements presented in this section are drawn from patent US20060217294A1.
